test system: IGROV-1; test: NCI tumour cell line growth inhibition, 48 h
Activity calls are given as the source filed them. No stated cut-off is given here; in the data, active = GI50 up to about 1.1 µM and inactive = higher.
Please provide measured GI50 for the entries that follow.

Look over these answered cases.
Prompt: Given the entry NNC1=Nc2ccc(Cl)cc2C(=S)N2CSCC12 (stereo unspecified) , report its measured GI50.
Completion: > 100 µM (inactive)

Prompt: Same question for BrC1=CCC23CC=C(Br)[C@H]4CC2(COC3)C[C@@H]1O4 (stereo partly specified) please.
Completion: > 100 µM (inactive)

Prompt: Same question for O=c1ccn(C2(CO)C=C(CO)C(O)C2O)c(=O)[nH]1 (stereo unspecified) please.
Completion: > 25.7 µM (inactive)

Prompt: Same question for CCCCCCCCCCCCCCCCCCOP(=O)([O-])OC1CC[N+](C)(C)CC1 please.
Completion: 2.18 µM (inactive)

Prompt: Same question for NC(CCc1ncc(C(=O)O)s1)C(=O)O (stereo unspecified) please.
Completion: > 100 µM (inactive)

For the 4 molecules below, give their GI50 values.
1. C=CCCCC1CCCNC1=S (stereo unspecified)
2. COc1ccc(C)cc1C1CCC(=O)O1 (stereo unspecified)
3. Nc1ncnc2c1ncn2C1OC(CO)CC1O (stereo unspecified)
4. O=C(CCN1CCOCC1)c1ccc(Oc2ccc(F)cc2)cc1

Completion:
> 100 µM (inactive)
> 100 µM (inactive)
> 100 µM (inactive)
19.5 µM (inactive)

For the 2 molecules below, give their GI50 values.
1. CC1=C(C(=O)Nc2ccc([N+](=O)[O-])cc2)C(c2cccc([N+](=O)[O-])c2)C(C(=O)Nc2ccc([N+](=O)[O-])cc2)=C(C)N1
2. CN(Cc1cnc2nc(N)nc(N)c2n1)c1ccc(C(=O)NC(CCC(=O)NCCC(P(=O)(O)O)P(=O)(O)O)C(=O)O)cc1 (stereo unspecified)

Completion:
1: 21.2 µM (inactive); 2: 35.2 µM (inactive)
